The measured values listed here are drawn from ChEMBL document CHEMBL4831511.

- Target system: UniProt:Q95PM0
- Method: Inhibition of Trypanosoma brucei rhodesain assessed as fluorescence using Cbz-Phe-Arg-AMC as substrate measured using Dixon equation by fluorometric enzyme assays
Readout kind: Ki (nM)

{"columns": ["Molecular string", "Target system", "Readout kind", "Meas value"],
 "data": [
  ["Cc1cccc(C[C@H](NC(=O)c2ccc3c(c2)OCCO3)C(=O)N[C@H](/C=C(\\F)S(=O)(=O)Oc2ccccc2)CCc2ccccc2)c1", "UniProt:Q95PM0", "Ki", 10],
  ["Cc1cccc(C[C@H](NC(=O)c2cc(F)cc(F)c2)C(=O)N[C@H](/C=C(\\F)S(=O)(=O)Oc2ccccc2)CCc2ccccc2)c1", "UniProt:Q95PM0", "Ki", 21],
  ["Cc1ccc(C[C@H](NC(=O)c2ccc3c(c2)OCCO3)C(=O)N[C@H](/C=C(\\F)S(=O)(=O)Oc2ccccc2)CCc2ccccc2)cc1", "UniProt:Q95PM0", "Ki", 7],
  ["Cc1cccc(C[C@H](NC(=O)c2ccncc2)C(=O)N[C@H](/C=C(\\F)S(=O)(=O)Oc2ccccc2)CCc2ccccc2)c1", "UniProt:Q95PM0", "Ki", 7],
  ["Cc1ccc(C[C@H](NC(=O)c2cc(F)cc(F)c2)C(=O)N[C@H](/C=C(\\F)S(=O)(=O)Oc2ccccc2)CCc2ccccc2)cc1", "UniProt:Q95PM0", "Ki", 5],
  ["O=C(N[C@@H](Cc1ccccc1)C(=O)N[C@H](/C=C(\\F)S(=O)(=O)Oc1ccccc1)CCc1ccccc1)c1ccncc1", "UniProt:Q95PM0", "Ki", 15],
  ["O=C(N[C@@H](Cc1ccccc1)C(=O)N[C@H](/C=C(\\F)S(=O)(=O)Oc1ccccc1)CCc1ccccc1)c1ccc2c(c1)OCCO2", "UniProt:Q95PM0", "Ki", 9],
  ["Cc1ccc(C[C@H](NC(=O)c2ccncc2)C(=O)N[C@H](/C=C(\\F)S(=O)(=O)Oc2ccccc2)CCc2ccccc2)cc1", "UniProt:Q95PM0", "Ki", 3]
]}

* * *

- Target system: Rhodesain (Trypanosoma brucei rhodesiense)
- Sequence (Q95PM0 whole entry): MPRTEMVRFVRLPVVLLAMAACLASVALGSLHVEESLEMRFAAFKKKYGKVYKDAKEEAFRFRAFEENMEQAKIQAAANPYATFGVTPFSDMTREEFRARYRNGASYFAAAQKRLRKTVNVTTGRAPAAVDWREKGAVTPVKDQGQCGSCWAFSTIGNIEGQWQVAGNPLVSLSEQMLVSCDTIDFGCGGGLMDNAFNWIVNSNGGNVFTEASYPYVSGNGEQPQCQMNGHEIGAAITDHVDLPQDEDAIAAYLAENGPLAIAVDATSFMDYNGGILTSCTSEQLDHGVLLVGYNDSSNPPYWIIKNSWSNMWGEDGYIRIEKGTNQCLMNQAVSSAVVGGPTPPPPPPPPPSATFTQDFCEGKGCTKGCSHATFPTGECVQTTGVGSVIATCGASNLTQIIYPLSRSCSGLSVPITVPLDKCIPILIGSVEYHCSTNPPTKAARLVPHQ
- Method: Inhibition of Trypanosoma brucei rhodesain assessed as rate constant of association using Cbz-Phe-Arg-AMC as substrate by fluorometric enzyme assays
# cutoff 0.06 s⁻¹ applies to K; >= gives T, < gives F

{"columns": ["Molecular string", "Cat"],
 "data": [
  ["Cc1cccc(C[C@H](NC(=O)c2cc(F)cc(F)c2)C(=O)N[C@H](/C=C(\\F)S(=O)(=O)Oc2ccccc2)CCc2ccccc2)c1", "F"],
  ["Cc1cccc(C[C@H](NC(=O)c2ccncc2)C(=O)N[C@H](/C=C(\\F)S(=O)(=O)Oc2ccccc2)CCc2ccccc2)c1", "T"],
  ["Cc1cccc(C[C@H](NC(=O)c2ccc3c(c2)OCCO3)C(=O)N[C@H](/C=C(\\F)S(=O)(=O)Oc2ccccc2)CCc2ccccc2)c1", "T"],
  ["Cc1ccc(C[C@H](NC(=O)c2ccc3c(c2)OCCO3)C(=O)N[C@H](/C=C(\\F)S(=O)(=O)Oc2ccccc2)CCc2ccccc2)cc1", "T"],
  ["Cc1ccc(C[C@H](NC(=O)c2cc(F)cc(F)c2)C(=O)N[C@H](/C=C(\\F)S(=O)(=O)Oc2ccccc2)CCc2ccccc2)cc1", "F"],
  ["Cc1ccc(C[C@H](NC(=O)c2ccncc2)C(=O)N[C@H](/C=C(\\F)S(=O)(=O)Oc2ccccc2)CCc2ccccc2)cc1", "T"],
  ["O=C(N[C@@H](Cc1ccccc1)C(=O)N[C@H](/C=C(\\F)S(=O)(=O)Oc1ccccc1)CCc1ccccc1)c1ccc2c(c1)OCCO2", "F"],
  ["O=C(N[C@@H](Cc1ccccc1)C(=O)N[C@H](/C=C(\\F)S(=O)(=O)Oc1ccccc1)CCc1ccccc1)c1ccncc1", "F"]
]}

* * *

Catalogue of selectivity ratio values
- Test system: cathepsin L (CatL) versus rhodesain
- Method: Selectivity index, ratio of Ki for human liver CatL to Trypanosoma brucei rhodesain
- Experimental setup: read-out: Selectivity Index
Readout kind: selectivity ratio

{"columns": ["Molecular string", "Meas value"],
 "data": [
  ["Cc1cccc(C[C@H](NC(=O)c2ccncc2)C(=O)N[C@H](/C=C(\\F)S(=O)(=O)Oc2ccccc2)CCc2ccccc2)c1", 4],
  ["O=C(N[C@@H](Cc1ccccc1)C(=O)N[C@H](/C=C(\\F)S(=O)(=O)Oc1ccccc1)CCc1ccccc1)c1ccncc1", 4],
  ["CSCC[C@@H](/C=C(\\F)S(=O)(=O)c1ccccc1)NC(=O)[C@H](Cc1ccccc1)NC(=O)c1ccncc1", 10],
  ["Cc1ccc(C[C@H](NC(=O)c2ccncc2)C(=O)N[C@H](/C=C(\\F)S(=O)(=O)Cc2ccccc2)CCc2ccccc2)cc1", 12]
]}

* * *

- Target system: Cathepsin B (Homo sapiens)
- Method: Inhibition of human liver CatB assessed as fluorescence using Cbz-Phe-Arg-AMC as substrate at 11 uM by fluorometric enzyme assays
Catalogue of inhibition values

{"columns": ["Molecular string", "Target system", "Units text", "inhibition"],
 "data": [
  ["Cc1ccc(C[C@H](NC(=O)c2ccncc2)C(=O)N[C@H](/C=C(\\F)S(=O)(=O)Cc2ccccc2)CCc2ccccc2)cc1", "Cathepsin B (Homo sapiens)", "%", 35],
  ["O=C(N[C@@H](Cc1ccccc1)C(=O)N[C@H](/C=C(\\F)S(=O)(=O)Cc1ccccc1)CCc1ccccc1)c1ccncc1", "Cathepsin B (Homo sapiens)", "%", 44],
  ["Cc1ccc(C[C@H](NC(=O)c2ccncc2)C(=O)N[C@H](/C=C(\\F)S(=O)(=O)Oc2ccccc2)CCc2ccccc2)cc1", "Cathepsin B (Homo sapiens)", "%", 38],
  ["Cc1ccc(C[C@H](NC(=O)c2ccc3c(c2)OCCO3)C(=O)N[C@H](/C=C(\\F)S(=O)(=O)Cc2ccccc2)CCc2ccccc2)cc1", "Cathepsin B (Homo sapiens)", "%", 8],
  ["Cc1ccc(C[C@H](NC(=O)c2ccc3c(c2)OCCO3)C(=O)N[C@H](/C=C(\\F)S(=O)(=O)Oc2ccccc2)CCc2ccccc2)cc1", "Cathepsin B (Homo sapiens)", "%", 14],
  ["Cc1cccc(C[C@H](NC(=O)c2ccncc2)C(=O)N[C@H](/C=C(\\F)S(=O)(=O)Oc2ccccc2)CCc2ccccc2)c1", "Cathepsin B (Homo sapiens)", "%", 50]
]}

* * *

- Species: Homo sapiens
- Method: Inhibition of alpha-chymotrypsin-like activity of human 20S proteasome at 11 uM using Succ-Leu-Leu-Val-Tyr-AMC as fluorogenic substrate by microplate reader relative to control
Calls of active or inactive are those of the source. No cut-off for these calls is given here.

{"columns": ["Molecular string", "inhibition"],
 "data": [
  ["Cc1ccc(C[C@H](NC(=O)c2ccc3c(c2)OCCO3)C(=O)N[C@H](/C=C(\\F)S(=O)(=O)Oc2ccccc2)CCc2ccccc2)cc1", "22%"],
  ["O=C(N[C@@H](Cc1ccccc1)C(=O)N[C@H](/C=C(\\F)S(=O)(=O)c1ccccc1)CCc1ccccc1)c1ccc2c(c1)OCCO2", "inactive"],
  ["O=C(N[C@@H](Cc1ccccc1)C(=O)N[C@H](/C=C(\\F)S(=O)(=O)Oc1ccccc1)CCc1ccccc1)c1ccncc1", "11%"],
  ["Cc1ccc(C[C@H](NC(=O)c2ccncc2)C(=O)N[C@H](/C=C(\\F)S(=O)(=O)Oc2ccccc2)CCc2ccccc2)cc1", "20%"],
  ["CSCC[C@@H](/C=C(\\F)S(=O)(=O)c1ccccc1)NC(=O)[C@H](Cc1ccccc1)NC(=O)N1CCN(C)CC1", "inactive"],
  ["Cc1ccc(C[C@H](NC(=O)c2ccncc2)C(=O)N[C@H](/C=C(\\F)S(=O)(=O)c2ccccc2)CCc2ccccc2)cc1", "13%"]
]}

* * *

- Species on record: Homo sapiens
- Method: Inhibition of caspase-like activity of human 20S proteasome at 11 uM using Cbz-Leu-Leu-Glu-AMC as fluorogenic substrate by microplate reader relative to control
Catalogue of inhibition values
Readout kind: inhibition

{"columns": ["Molecular string", "Readout kind", "Meas value"],
 "data": [
  ["O=C(N[C@@H](Cc1ccccc1)C(=O)N[C@H](/C=C(\\F)S(=O)(=O)Oc1ccccc1)CCc1ccccc1)c1ccncc1", "inhibition", "22%"],
  ["Cc1ccc(C[C@H](NC(=O)c2ccncc2)C(=O)N[C@H](/C=C(\\F)S(=O)(=O)Oc2ccccc2)CCc2ccccc2)cc1", "inhibition", "44%"],
  ["CN1CCN(C(=O)N[C@@H](Cc2ccccc2)C(=O)N[C@H](/C=C(\\F)S(=O)(=O)c2ccccc2)CCc2ccccc2)CC1", "inhibition", "16%"],
  ["Cc1ccc(C[C@H](NC(=O)c2ccc3c(c2)OCCO3)C(=O)N[C@H](/C=C(\\F)S(=O)(=O)Oc2ccccc2)CCc2ccccc2)cc1", "inhibition", "31%"],
  ["Cc1ccc(C[C@H](NC(=O)c2ccncc2)C(=O)N[C@H](/C=C(\\F)S(=O)(=O)c2ccccc2)CCc2ccccc2)cc1", "inhibition", "28%"],
  ["O=C(N[C@@H](Cc1ccccc1)C(=O)N[C@H](/C=C(\\F)S(=O)(=O)c1ccccc1)CCc1ccccc1)c1ccc2c(c1)OCCO2", "inhibition", "26%"]
]}
